- settings: in n-butyl acetate, 303.45 K

compound_structure: CCCCCCCCCCCCCCCCCCCC(=O)OCCO
solubility (mole fraction): 0.0288

----------
- settings: in n-propyl acetate, 317.85 K

compound_structure: CCCCCCCCCCCCCCCCCC(=O)OCCO
solubility (mole fraction): 0.405

----------
- settings: in ethanol, 302.05 K

compound_structure: CCCCCCCCCCCCCCCCCCCCCC(=O)OCCO
solubility (mole fraction): 0.0002

----------
- settings: in trichloroethylene, 311.25 K
reported_endpoint: solubility (mole fraction)

compound_structure: CCCCCCCCCCCCCCCCCCCCCC(=O)OCCO
value_reported: 0.252
